System: CCRF-CEM
experiment.notes: NCI tumour cell line growth inhibition, 48 h
Active and inactive are the calls of the source. No stated cut-off is given here; in the data, active = GI50 up to about 1.1 µM and inactive = higher.
Your reply should match one of these outcome classes. active, inactive

COc1cc2cc(OC)c3cc4c(cc3c2c(OC)c1OC)OCO4 :: inactive
COC(=O)C1=C(C(=O)OC)C2=S(SC3=C2CCCC3)S1 (stereo unspecified) :: inactive
[O-]/[N+](=C\c1ccccc1)[C@H](COCc1ccccc1)c1ccccc1 :: inactive
Cc1cccc(N/C(=C(/C(Cl)=C(Cl)Cl)[N+](=O)[O-])n2nnc3ccccc32)c1 :: inactive
CCOC(=O)/C=C1\CCCC12OCCO2 :: inactive
COC1(OC)N=C(N)C2(C#N)C(C)=C3NCN(C)N=C3C12C#N (stereo unspecified) :: inactive

Task: Any idea what this test logged for `CCOC(=O)c1csc(NC(=O)CN(C)C)n1` ?
Result: inactive

Task: // query: `COC(=O)CSC(=S)Nc1nnc(NC(=S)SCOC(C)=O)n1C(=S)SCC(=O)OC`
Result: inactive

Task: // query: `Cc1ccc(/N=N/c2c(C)nn(-c3ccccc3)c2-c2ccccc2)c(Br)c1`
Result: inactive

Task: // query: `CCC1(CC)SCc2nc3ccccc3n21`
Result: inactive

Task: // query: `COc1ccc(/C=C(/C(=O)c2ccc(Cl)cc2)N2C=CC=CC2=C(C#N)C#N)cc1OC`
Result: active

* * *

System: ACHN
experiment.notes: NCI tumour cell line growth inhibition, 48 h
The source made the active and inactive calls. Cut-off read from the data, not from the text of the source: active = GI50 up to about 1.1 µM and inactive = higher.
Your reply should match one of these outcome classes. active, inactive

O=C(/C=C\c1cccc2ccccc12)c1ccc(Cl)cc1Cl :: inactive
Cc1cn(C2CC(N(C)C)C(CO)O2)c(=O)[nH]c1=O (stereo unspecified) :: inactive
c1ccc2c(NCCCCCCNc3c4ccccc4nc4ccccc34)c3ccccc3nc2c1 :: active
Oc1ccc2c(c1)-c1c(c3cc(O)ccc3n1CCN1CCOCC1)CC2 :: inactive
CC(=O)Nc1nc(C)c(S(=O)(=O)NC(=O)N2c3ccccc3CCc3ccccc32)s1 :: inactive
CC(=O)CC(O)(C(F)(F)Cl)C(F)(Cl)Cl (stereo unspecified) :: inactive
COC(=O)C1N=CSCC1(C)O (stereo unspecified) :: inactive
CC(=O)NNc1nc(C)c(C(=O)NNC(=O)C(=O)Nc2ccc(Cl)c([N+](=O)[O-])c2)s1 :: inactive

Task: Any idea what this test logged for CCCCCCCCCCCCCCCCCC(=O)NCC(COP(=O)([O-])OCC[N+](C)(C)C)OC (stereo unspecified) ?
Result: inactive

Task: // query: CC(C)(C)NCC(COc1ccc([N+](=O)[O-])cc1)OP(c1ccccc1)c1ccccc1 (stereo unspecified)
Result: inactive

Task: // query: `Cc1cc(O)cc2c1c(=O)c1ccccc1n2C`
Result: inactive

* * *

Test system: MCF7
experiment.notes: NCI tumour cell line growth inhibition, 48 h
Activity calls are given as the source filed them. Rule as the data show it: active = GI50 up to about 1.1 µM and inactive = higher. Where a SMILES comes first, the peptide text is derived from it. [ ]: non-standard residue; d: D form. The star is where a group is joined. ξ: configuration not given here. ξPhe(4-NO2) = NC(Cc1ccc([N+](=O)[O-])cc1)C(=O)O; Boc = CC(C)(C)OC(=O)*
endpoint.label: GI50

Reference set (9 entries):
CCOC(=O)CCC(NC(=O)Cc1ccc(Nc2nc3ccccc3nc2-c2cccs2)cc1)C(=O)OCC (stereo not given) :: 41.1 µM (inactive)
COC(=O)C1=Nc2c(C)nn(-c3ccccc3)c2N=C(c2ccc([N+](=O)[O-])cc2)C1 :: > 10 µM (inactive)
CCNC(=O)CNC(=O)C(Cc1ccc([N+](=O)[O-])cc1)NC(=O)OC(C)(C)C (stereo not given) (Boc-[ξPhe(4-NO2)]-Gly-NHEt) :: > 100 µM (inactive)
CCc1cccc(CC)c1NC(=S)NC(=O)c1ccc(Br)cc1 :: 20.6 µM (inactive)
COC(=O)c1nsc(OC)c1Cl :: > 100 µM (inactive)
CCCCCCCC/C=C\CCCCCCC/C=C1\C[C@](/C=C/C(=O)OC)(CO)OC1=O :: 3.28 µM (inactive)
CN1C(NN)=NS(=O)(=O)c2ccccc21 :: > 100 µM (inactive)
Cc1ccc(S[C@@H](C)[C@@](O)(CF)CN(Cc2ccccc2)C(=O)C(F)(F)F)cc1 :: 20.8 µM (inactive)
Cn1nnc2c(C(N)=O)ncn2c1=O [TEMOZOLOMIDE] :: > 100 µM (inactive)

Now examine the next entry.
Task: Hello, I am looking for reported GI50 with MCF7 for `COC(=O)/C=C1/SC(/C(=C(/[O-])OC)[n+]2ccc3ccccc3c2)=NC1=O` . Could you help?
Result: > 100 µM (inactive)

* * *

Exercise: for every item that follows, state its recorded GI50.
Tested on: UACC-62
experiment.notes: NCI tumour cell line growth inhibition, 48 h
Active and inactive are the calls of the source. Cut-off read from the data, not from the text of the source: active = GI50 up to about 1.1 µM and inactive = higher.

Reference set (3 entries):
CCOP(=O)(OCC)C(NC(=O)C(C(F)(F)F)C(F)(F)F)c1ccccc1 (stereo unspecified) :: > 100 µM (inactive)
COC(=O)C1N=CSCC1(C)O (stereo unspecified) :: > 100 µM (inactive)
Cc1[nH]c2ccccc2c1C1Cc2ccccc2N1C(=O)/C(Cl)=C/c1ccccc1 (stereo unspecified) :: > 100 µM (inactive)

Respectfully, I request GI50 for each entry included below.
1. COC(C/C=C\C=C\CC/C=C/CC(C)/C=C/C(=C\C(=O)O)CC(=O)O)/C(C)=C\C=C(/C)C(=O)O (stereo unspecified)
2. COc1cc2c(cc1OC)CC(N=[N+]=[N-])c1cc(OC)c(OC)cc1/C=C\2 (stereo unspecified)
3. O=S(=O)(O)C1CCC(O)C2NCCCC21 (stereo unspecified)
4. CC(C)OC(=O)c1cccnc1/C=N/O
5. O=S(=O)(N/N=C/c1cccc(/C=N/NS(=O)(=O)c2ccccc2)c1)c1ccccc1
6. CC(=O)Nc1ccc2nc(N)n[n+]([O-])c2c1
7. N#CC(C#N)=C(N)/C(C#N)=C/c1ccc(O)c(O)c1

Result:
1: > 100 µM (inactive); 2: 30 µM (inactive); 3: > 100 µM (inactive); 4: > 100 µM (inactive); 5: 85.9 µM (inactive); 6: > 100 µM (inactive); 7: 49 µM (inactive)

Task: Fill blank: measured GI50 of the compound C=C(C)C(O)C(O)c1c(OC)ccc2ccc(=O)oc12 (stereo unspecified) is ____.
Result: > 100 µM (inactive)

* * *

Tested on: HT-29
experiment.notes: NCI tumour cell line growth inhibition, 48 h
Calls of active or inactive are those of the source. Rule as the data show it: active = GI50 up to about 1.1 µM and inactive = higher.
Exercise: for every item that follows, state its recorded GI50.

Reference set (4 entries):
Cc1cc(S(=O)(=O)n2ccnc2O)c(SCCCN(C)C)cc1Cl :: > 100 µM (inactive)
CSc1nc2c(nc(N)n2C2OC(COC(C)=O)C(OC(C)=O)C(OC(C)=O)C2OC(C)=O)c(=O)n1C (stereo not given) :: > 100 µM (inactive)
O=S(=O)(c1ccccc1)n1c2cc3cccnc3nc2c2cccnc21 :: 60.4 µM (inactive)
O=C(/C=C\c1cccc2ccccc12)c1ccc(Cl)cc1Cl :: 17.9 µM (inactive)

Task: Hello, I am looking for reported GI50 with HT-29 for `O=C(CCC(=O)Nc1cccc(C(F)(F)F)c1)CC(=O)c1ccc2ccccc2c1` . Could you help?
Result: > 100 µM (inactive)

* * *

Tested on: NCI/ADR-RES
experiment.notes: NCI tumour cell line growth inhibition, 48 h
Activity calls are given as the source filed them. No stated cut-off is given here; in the data, active = GI50 up to about 1.1 µM and inactive = higher.
Exercise: for every item that follows, state its recorded GI50.

CC1CC[C@@]2(OC1)OC1C[C@H]3[C@@H]4CC=C5CC(OC6OC(CO)C(OC7OC(CO)C(O)C(OC8OCC(O)C(O)C8O)C7OC7OC(CO)C(O)C(O)C7O)C(O)C6O)CCC5(C)[C@H]4CCC3(C)C1[C@@H]2C (stereo not given in full) :: 5.97 µM (inactive)
O=C(NO)c1ccc(C(=O)NO)cc1 :: 3.21 µM (inactive)
CC(C)(C)OC(=O)N1Cc2cc(O)ccc2C[C@H]1C(=O)O :: > 100 µM (inactive)
CCc1cccc(CC)c1NC(=S)NC(=O)c1ccc(Br)cc1 :: 29.7 µM (inactive)
CCCc1c(OC)c(=O)c2c(OC)cc(OC)c3c4c(OC)cc(OC)c5c(=O)c(OC)c(CCC)c(c1c23)c54 :: 21.2 µM (inactive)

Respectfully, I request GI50 for each entry included below.
1. NC1=NNC2(C(N)=N1)c1ccccc1-c1ccccc12
2. CCC1(CC)SCc2nc3ccccc3n21
3. CC1ON2CCCC2[C@H]1C(=O)N1C2CC3CCC2(CS1(=O)=O)C3(C)C (stereo not given in full)

Result:
1. > 10 µM (inactive)
2. 25.6 µM (inactive)
3. > 100 µM (inactive)

Respectfully, I request GI50 for each entry included below.
1. CCOP(=O)(OCC)C(NC(=O)C(C(F)(F)F)C(F)(F)F)c1ccccc1 (stereo not given)
2. CN1CCN(CCCN2c3ccccc3Sc3ccc(C(F)(F)F)cc32)CC1

Result:
1: > 100 µM (inactive); 2: 11.6 µM (inactive)
